# Study Target: IRAK4 (Homo sapiens)
# Construct: Degradation of IRAK4 in OCI-LY10 was quantitatively measured using Meso Scale Discovery technology; endogenous in cells; host or cells: OCI-LY10
# Sequence (Q9NWZ3 1-460): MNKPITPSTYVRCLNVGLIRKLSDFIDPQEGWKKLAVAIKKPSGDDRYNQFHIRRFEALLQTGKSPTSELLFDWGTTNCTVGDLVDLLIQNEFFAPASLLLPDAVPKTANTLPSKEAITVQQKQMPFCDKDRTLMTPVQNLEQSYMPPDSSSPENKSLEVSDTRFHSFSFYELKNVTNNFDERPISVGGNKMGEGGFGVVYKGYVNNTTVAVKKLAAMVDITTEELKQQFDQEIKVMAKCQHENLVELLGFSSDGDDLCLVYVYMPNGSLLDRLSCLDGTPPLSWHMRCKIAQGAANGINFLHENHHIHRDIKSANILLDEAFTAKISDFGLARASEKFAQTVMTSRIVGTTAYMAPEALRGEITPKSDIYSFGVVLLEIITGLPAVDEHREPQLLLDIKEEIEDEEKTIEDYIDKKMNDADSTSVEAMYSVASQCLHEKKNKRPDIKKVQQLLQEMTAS
# Assay Overview: IRAK4 MSD Degradation in OCI-LY10
# Assay type: cell-based
# Condition Label: OCI-LY10 cells, 4 hrs incubation, MSD; read-out: IRAK4 degradation in OCI-LY10 at 4 hrs: DC50
Reported DC50 is given for each of the following compounds.

Some entries whose results are on file:
Compound	Study Target	DC50
Cn1c(=O)n(C2CCC(=O)NC2=O)c2cccc(N3CC(O[C@@H]4CCN(C[C@H]5CC[C@H](n6cc(NC(=O)c7cnn8ccc(N9C[C@H]%10C[C@@H]9CO%10)nc78)c(C(F)F)n6)CC5)C[C@H]4F)C3)c21 (stereo partly shown) [I-732]	IRAK4 (Homo sapiens)	> 200 nM
Cn1c(=O)n(C2CCC(=O)NC2=O)c2cccc(N3CCC4(CCN(C[C@H]5CC[C@H](n6cc7cc(NC(=O)c8cncc(C#N)c8)c(C(F)F)cc7n6)CC5)CC4)CC3)c21 (stereo partly shown) [I-187]	IRAK4 (Homo sapiens)	> 200 nM
C[C@H]1CN(C[C@H]2CC[C@H](n3cc(NC(=O)c4cnn5ccc(N6C[C@H]7C[C@@H]6CO7)nc45)c(C(F)F)n3)CC2)CC[C@H]1OCC#Cc1cccc2c1n(C)c(=O)n2C1CCC(=O)NC1=O (stereo partly shown) [I-26]	IRAK4 (Homo sapiens)	10 to 100 nM
Cc1ccc(-c2nn([C@H]3CC[C@H](CN(C)C4CCN(c5cccc6c5n(C)c(=O)n6C5CCC(=O)NC5=O)CC4)CC3)cc2NC(=O)c2cnn3cccnc23)nc1 (stereo partly shown) [I-292]	IRAK4 (Homo sapiens)	> 200 nM
Cn1c(=O)n(C2CCC(=O)NC2=O)c2cccc(N3CCN(CC4COC5(C4)CN(C[C@H]4CC[C@H](n6cc(NC(=O)c7cnn8ccc(N9C[C@H]%10C[C@@H]9CO%10)nc78)c(C(F)F)n6)CC4)C5)CC3)c21 (stereo partly shown) [I-660]	IRAK4 (Homo sapiens)	> 200 nM

Q. What does the record list as DC50 for Cn1c(=O)n(C2CCC(=O)NC2=O)c2cccc(C#CCN3CCN(C[C@H]4CC[C@H](n5cc(NC(=O)c6cnn7ccc(N8C[C@H]9C[C@@H]8CO9)nc67)c(C(F)F)n5)CC4)CC3)c21 (stereo partly shown) [I-31] ?
A. < 10 nM

Q. Would you mind telling me what DC50 value was observed for Cn1c(=O)n(C2CCC(=O)NC2=O)c2cccc([C@H]3C[C@H](CO[C@H]4CCN(C[C@H]5CC[C@H](n6cc(NC(=O)c7cnn8ccc(N9C[C@H]%10C[C@@H]9CO%10)nc78)c(C(F)F)n6)CC5)C[C@@H]4F)C3)c21 (stereo partly shown) [I-718] ?
A. > 200 nM

Q. Please report the recorded DC50 for C[C@H]1CN(C[C@H]2CC[C@H](n3cc(NC(=O)c4cnn5ccc(N6C[C@H]7C[C@@H]6CO7)nc45)c(C(F)F)n3)CC2)CC[C@@H]1OCC#Cc1cccc2c1n(C)c(=O)n2[C@H]1CCC(=O)NC1=O (single isomer, unassigned) [I-67] .
A. < 10 nM

Q. // DC50 lookup, key: CN(C1CCN(c2cccc3c2n(C)c(=O)n3C2CCC(=O)NC2=O)CC1)[C@@H](C#N)[C@H]1CC[C@H](n2cc(NC(=O)c3cnn4cccnc34)c(C(F)F)n2)CC1 (stereo partly shown) [I-242]
A. > 200 nM

Q. Which value of DC50 has been reported for Cn1c(=O)n(C2CCC(=O)NC2=O)c2cccc(C#CCOC3CCN(C[C@H]4CC[C@H](n5cc(NC(=O)c6cnn7ccc(N8C[C@H]9C[C@@H]8CO9)nc67)c(C(C)(C)O)n5)CC4)CC3)c21 (stereo partly shown) [I-174] in the records?
A. > 200 nM
